# Pseudo-neutralization (GFP) per record follows
Molecular target: SARS-CoV-2 (Wuhan-Hu-1 strain) spike glycoprotein on pseudotyped virus particles (SARS-CoV-2, UniProt P0DTC2 14-1273)
Assay: cell-based or functional assay

binder: Nb20 (VHH) VHH: QVQLVESGGGLVQAGGSLRLSCAVSGAGAHRVGWFRRAPGKEREFVAAIGASGGMTNYLDSVKGRFTISRDNAKNTIYLQMNSLKPQDTAVYYCAARDIETAEYIYWGQGTQVTVSS
Pseudo-neutralization (GFP): < 0.5 nM

binder: Nb90 (VHH) VHH: HVQLVESGGGLVQAGGSLRLSCAVSGRTVSSYVMGWFRQAPGKEREFVAGIGRTGMTITADSVKGRFTISRDNAKNLVYLQMNSLKSEDTAVYWCAAGVRDFAPRIDSYDYWGQGTQVTVSS
Pseudo-neutralization (GFP): > 3000 nM

binder: Nb89 (VHH) VHH: HVQLVESGGGLVQAGGSLRLSCAASGGTFTTFRMAWFRQTPGKEREFVAASSWGFVNYADPVKGRFTISRDNAKNTVYLEMSSLKTEDTAVYYCAARNPGTGQYDYWGQGTQVTVSS
Pseudo-neutralization (GFP): < 0.5 nM

binder: Nb92 (VHH) VHH: HVQLVESGGGLVQAGGSLRLSCAASGRTFSAYGMGWFRQAPGKEREFVAGIARSGSEYYGDSVKGRFTISRDNAKNTVYLQMASLKAEDTGVYYCAADPTILYHALSQRTQNYRYWGPGTQVTVSS
Pseudo-neutralization (GFP): > 3000 nM

binder: Nb6 (VHH) VHH: HVQLVESGGGLVQAGGSLRLSCAASGRTFSTHATGWFRQAPGKEREFLATSVWLDDISRDSTYYAESVKGRFSISRDNAKDTVYLQMNSLKPEDTAVYYCAVKQRVGPGIMSAPTYDYWGQGTQVTVSS
Pseudo-neutralization (GFP): > 3000 nM

binder: Nb21 (VHH) VHH: QVQLVESGGGLVQAGGSLRLSCAVSGLGAHRVGWFRRAPGKEREFVAAIGANGGNTNYLDSVKGRFTISRDNAKNTIYLQMNSLKPQDTAVYYCAARDIETAEYTYWGQGTQVTVSS
Pseudo-neutralization (GFP): < 0.5 nM
